Data credit: patent US20070213359A1

molecular target: UniProtKB Q92847; assay: Receptor Selection and Amplification Technology (R-SAT) assay; type: cell-based; design: expressed in transfected cells; host or cells: NIH3T3; settings: read-out: RSAT Eff(%)
assay-metric: Emax
Kindly format the answer as number then unit.

Take a look at these entries with their results.
Entry CCC(=O)c1cn(CCCN2C3CCC2CC(O)(c2ccc(F)cc2)C3)c2ccccc12 (stereo not drawn) — recorded Emax = 18%

Entry COc1cccc2c(C(=O)NCc3cccc(C)c3)cn(CCCNCCOc3ccccc3)c12 — recorded Emax = 52%

Entry COc1cccc2c(C(=O)c3ccccc3)cn(CCCN3CCC(Oc4ccccc4Cl)CC3)c12 — recorded Emax = 79%

Entry COc1cccc2c(C(=O)C3CC3)cn(CCCN3CCC(c4nc5ccccc5s4)CC3)c12 — recorded Emax = 88%

Entry COc1cccc2c(C(=O)NCc3cccc(Cl)c3)cn(CCCN3CCC(c4nc(-c5ccncc5)no4)CC3)c12 — recorded Emax = 105%

Others:
Entry COc1cccc2c(C(=O)NCc3cccc(Cl)c3)cn(CCCNC3Cc4ccccc4C3)c12 — recorded Emax = 133%

Entry COc1cccc2c(C(=O)Cc3ccccc3)cn(CCCN3CCN(Cc4ccc(Cl)cc4Cl)CC3)c12 — recorded Emax = 76%

Entry COc1cccc2c(C(=O)NCc3cccc(Cl)c3)cn(CCCN3CCC(C(=O)c4ccccc4)CC3)c12 — recorded Emax = 114%

Entry COc1cccc2c(C(=O)NCc3cccc(C)c3)cn(CCCN3CCC(C(=O)c4ccccc4)CC3)c12 — recorded Emax = 126%

====

target: Ghrelin receptor (Homo sapiens, UniProt Q92847); experiment: Receptor Selection and Amplification Technology (R-SAT) assay; type: cell-based; design: expressed in transfected cells; host or cells: NIH3T3; details: read-out: RSAT Eff(%)
Sequence (Q92847 whole entry): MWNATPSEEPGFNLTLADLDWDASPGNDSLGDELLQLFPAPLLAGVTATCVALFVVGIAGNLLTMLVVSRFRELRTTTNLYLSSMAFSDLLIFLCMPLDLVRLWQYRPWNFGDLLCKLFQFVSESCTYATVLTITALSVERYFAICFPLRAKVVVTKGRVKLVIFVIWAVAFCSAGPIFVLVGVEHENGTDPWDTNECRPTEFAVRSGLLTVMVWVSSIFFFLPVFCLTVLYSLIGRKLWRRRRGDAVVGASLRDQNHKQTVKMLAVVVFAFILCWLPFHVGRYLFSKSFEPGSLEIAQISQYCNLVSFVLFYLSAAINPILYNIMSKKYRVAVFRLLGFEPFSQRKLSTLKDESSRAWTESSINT
Emax values for the compounds below.
Lab book: enter the figure in %, no units written.

Entry COc1cccc2c(C(=O)C3CC3)cn(CCCN3CCC(C(=O)c4ccccc4)CC3)c12 — recorded Emax = 100

Entry COc1cccc2c(C(=O)NCc3cccc(C)c3)cn(CCCN3C4CCC3CC(CC(=O)c3ccc(Cl)cc3)C4)c12 (centres unmarked) — recorded Emax = 110

Entry COc1cccc2c(C(=O)C3CC3)cn(CCCN3CCCN(Cc4ccccc4Cl)CC3)c12 — recorded Emax = 99

Entry COc1cccc2c(C(=O)C3CC3)cn(CCCN3C4CCC3CC(CC(=O)c3ccc(Cl)cc3)C4)c12 (centres unmarked) — recorded Emax = 70

Could you now look at the following compound, please?
Entry CC(=O)c1cn(CCCNCCOc2ccccc2)c2c(C#N)cccc12 — recorded Emax = 11

====

target: Ghrelin receptor (Homo sapiens); test: Receptor Selection and Amplification Technology (R-SAT) assay; type: cell-based; design: expressed in transfected cells; host or cells: NIH3T3; conditions: percent inhibition at saturating ligand, normalized to reference ligand Substance P analog = 100%; read-out: RSAT Eff(%)
Emax values for the compounds below.
Lab book: enter the figure in %, no units written.

Take a look at these entries with their results.
Entry Cc1cccc(CNC(=O)n2cc(CCCN3C4CCC3CC(CCc3ccccc3)C4)c3ccccc32)c1 (centres unmarked) — recorded Emax = 114

Entry CC(=O)c1cn(CCN2C3CCC2CC(OCC2CC2)C3)c2ccccc12 (centres unmarked) — recorded Emax = 54

Entry O=C(c1cn(CCCN2CCC(O)(Cc3ccccc3)CC2)c2ccccc12)C(F)(F)F — recorded Emax = 111

Entry CC(=O)c1cn(CCCN2CCCC(Oc3ccc(Cl)cc3)C2)c2ncccc12 (centres unmarked) — recorded Emax = 53

Could you now look at the following compound, please?
Entry COc1ccc2[nH]c3c(c2c1)CCN(CCCn1cc(C(C)=O)c2cccc(OC)c21)C3 — recorded Emax = 123

====

molecular target: Ghrelin receptor (Homo sapiens); assay: Receptor Selection and Amplification Technology (R-SAT) assay; assay type: cell-based; parameters: expressed in transfected cells; host or cells: NIH3T3; settings: read-out: RSAT Eff(%)
assay-metric: Emax (%)
Lab book: enter the figure in %, no units written.

Entry COc1cccc2c(C(=O)c3ccccc3)cn(CCCN3C4CCC3CC(Oc3ccc(Cl)cc3)C4)c12 (stereo not drawn) — recorded Emax = 91

Entry COc1cccc2c(C(=O)Cc3ccccc3)cn(CCCN3CCC(c4nc(-c5ccncc5)no4)CC3)c12 — recorded Emax = 137

Could you now look at the following molecule, please?
Entry COc1cccc2c(C(=O)NCc3cccc(C)c3)cn(CCCN3CCN(Cc4ccc(Cl)cc4Cl)CC3)c12 — recorded Emax = 110

====

target: Ghrelin receptor (Homo sapiens, UniProt Q92847); experiment: Receptor Selection and Amplification Technology (R-SAT) assay; type: cell-based; parameters: expressed in transfected cells; host or cells: NIH3T3; details: negative logarithm of ligand concentration causing 50% inhibition of constitutive receptor response; transfected NIH3T3 cells; '—' not defined (nd used separately); read-out: RSAT pIC50 (converted)
We'd kindly ask you to apply these IC50 classes: bucket 1: < 40 nM; bucket 2: ≥ 40 nM and < 500 nM; bucket 3: ≥ 500 nM

These solved cases illustrate the format of a correct answer.
Category of CCCCC(=O)c1cn(CCCN2CCC(Oc3ccc(Cl)cc3)CC2)c2ccc(OC)cc12 :
bucket 2

Category of CC(=O)c1cn(CCCN2C3CCC2CC(CCc2ccccc2)C3)c2c(C)cccc12 (centres unmarked) :
bucket 1

Category of CC(=O)c1cn(CCCN2CCC(Oc3ccc(Cl)cc3)CC2)c2cc(Br)ccc12 :
bucket 3

Others:
Category of CCC(=O)c1cn(CCCN2CCC(Oc3ccccc3Cl)CC2)c2ccccc12 :
bucket 2

Category of CCCCC(=O)c1cn(CCCN2CCC(C(=O)c3ccccc3)CC2)c2ccc(OC)cc12 :
bucket 3

Category of COc1cccc2c(C#N)cn(CCCN3C4CCC3CC(CCc3ccccc3)C4)c12 (centres unmarked) :
bucket 1

Category of CC(=O)c1cn(CCCN2C3CCC2CC(Oc2ccc(F)cc2)C3)c2ncccc12 (centres unmarked) :
bucket 1

Category of CCCOC1CCN(CCCn2cc(CCC(C)=O)c3ccccc32)CC1 :
bucket 3

====

RSAT Eff(%) values for the compounds below.
molecular target: Ghrelin receptor (Homo sapiens); experiment: Receptor Selection and Amplification Technology (R-SAT) assay; format: cell-based; set-up: expressed in transfected cells; host or cells: NIH3T3
Kindly format the answer as number then unit.

Take a look at these entries with their results.
Entry CCc1cccc2c(C(C)=O)cn(CCCN3CCC(N4C(=O)Cc5ccccc54)CC3)c12 — recorded RSAT Eff(%) = 147%

Entry CC(=O)c1cn(CCCN2CCC(N3C(=O)Cc4ccccc43)CC2)c2c(C)cccc12 — recorded RSAT Eff(%) = 69%

Entry COc1cccc2c(C#N)cn(CCCN3CCC(N4C(=O)Cc5ccccc54)CC3)c12 — recorded RSAT Eff(%) = 33%

Entry CC(=O)c1cn(CCCN2CCC(N3C(=O)Cc4ccccc43)CC2)c2c(Br)cccc12 — recorded RSAT Eff(%) = 60%

Entry CC(=O)c1cn(CCCN2CCC(N3C(=O)Cc4ccccc43)CC2)c2c(Cl)cccc12 — recorded RSAT Eff(%) = 28%

Others:
Entry O=C(NCc1cccc(Cl)c1)c1cn(CCCN2CCC(Oc3ccc(F)cc3)CC2)c2ccccc12.O=C(O)C(=O)O [drawing 596] — recorded RSAT Eff(%) = 142%

Entry CC(=O)c1cn(CCCN2CCC(N3C(=O)Cc4ccccc43)CC2)c2c(C#N)cccc12 — recorded RSAT Eff(%) = 133%

Entry CC(=O)c1c(C)n(CCCN2CCC(N3C(=O)Cc4ccccc43)CC2)c2c(Br)cccc12 — recorded RSAT Eff(%) = 12%

====

target: Ghrelin receptor (Homo sapiens); experiment: Receptor Selection and Amplification Technology (R-SAT) assay; format: cell-based; parameters: expressed in transfected cells; host or cells: NIH3T3; conditions: read-out: RSAT Eff(%)
Emax values for the compounds below.
Lab book: enter the figure in %, no units written.

Summary: CCCCC1CCN(CCCn2cc(C(C)=O)c3ccccc32)CC1 [drawing 584] , Ghrelin receptor (Homo sapiens), Emax = 77

Summary: COc1cccc2c(C(=O)NCC(C)C)cn(CCCN3CCCN(Cc4ccc(F)cc4)CC3)c12 , Ghrelin receptor (Homo sapiens), Emax = 118

Summary: CCOC(=O)C1CCN(CCCn2cc(C(=O)C(F)(F)F)c3ccccc32)CC1 , Ghrelin receptor (Homo sapiens), Emax = 64

Summary: CC(=O)c1cn(CCCN2C3CCC2CC(CC(=O)c2ccccc2)C3)c2c(Br)cccc12 (stereo not shown) , Ghrelin receptor (Homo sapiens), Emax = 111

Summary: COc1cccc2c(C(=O)NCc3cccc(Cl)c3)cn(CCCN3CCCN(Cc4ccc(F)cc4)CC3)c12 , Ghrelin receptor (Homo sapiens), Emax = 113

Summary: CCCOC1CCN(CCn2cc(C(C)=O)c3ccccc32)CC1 , Ghrelin receptor (Homo sapiens), Emax = 40

Others:
Summary: COc1cccc2c(C(=O)c3ccccc3)cn(CCCN3CCC(c4nc5ccccc5s4)CC3)c12 , Ghrelin receptor (Homo sapiens), Emax = 107
